B1: Azoarcus group I ribozyme (parent)
chain: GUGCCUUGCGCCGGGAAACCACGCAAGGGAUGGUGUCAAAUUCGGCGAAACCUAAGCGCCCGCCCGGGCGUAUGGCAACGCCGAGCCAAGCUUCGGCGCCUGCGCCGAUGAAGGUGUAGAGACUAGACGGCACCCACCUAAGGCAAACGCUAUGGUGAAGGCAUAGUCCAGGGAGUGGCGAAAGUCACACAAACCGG

- Variants of: B1
- ASSAY COMMENT: reverse-splicing fitness (ratio to wild type); higher = more active; in vitro selection; Mg2+ level not given
OUTCOME MEASURE: reverse-splicing fitness
Keep it simple and answer with nothing but the number.

C82U A111C A120G A145C C150G C169A U176A ... 0.00754
A111C A145U C150U C169A ... 0.0212

The reported value for C82A A111G A120C A145U C169A U176A in terms of reverse-splicing fitness is 0.0138

The reported value for C82U A111G A120G A145C C150U U176G in terms of reverse-splicing fitness is 0.00386

The reported value for C82U A111U A120C A145G C150G C169A U176C in terms of reverse-splicing fitness is 0.0137

The reported value for A120G C150A C169U U176C in terms of reverse-splicing fitness is 0.0621

The reported value for C82U A111U A120G A145C C169G U176G in terms of reverse-splicing fitness is 0.004

Provenance of the data: the RNAGym collection of RNA variant scans (doi:10.1093/molbev/msab373)
